# system.name: Estrogen receptor (Homo sapiens) (UniProt P03372)
# protocol.details: Agonist activity at ERalpha expressed in HEK cells co-expressing beta-lactamase at 10 uM after 18 hrs by beta-lactamase reporter gene assay relative to estradiol
# Format: functional, cell-based
# assay.setup: HEK293
recorded.endpoint: Emax
# output: numeric value plus its unit

Below are worked cases with known answers.
1. CC(O)(CN(C1CC1)S(=O)(=O)c1ccc(O)cc1)c1c(F)cccc1F (racemic)
75%
2. O=S(=O)(c1ccc(O)cc1)N1[C@@H]2CC[C@H]1C[C@H](CO)C2
94%
3. C[C@](O)(CN(C1CC1)S(=O)(=O)c1ccc(O)cc1)c1ccccc1
107%
4. CCCCC(O)(CN(C1CC1)S(=O)(=O)c1ccc(O)cc1)c1ccccc1 (racemic)
82%
5. CCCCN(CC(C)(O)c1ccccc1)S(=O)(=O)c1ccc(O)cc1 (racemic)
82%

For each of the items listed, what is its Emax?
1. C[C@@](O)(CN(C1CC1)S(=O)(=O)c1ccc(O)cc1)c1ccccc1
2. O=S(=O)(c1ccc(O)cc1)N(CC(O)(c1ccccc1)C(F)(F)F)C1CC1 (racemic)
3. CC(C)N(CC(C)(O)c1ccccc1)S(=O)(=O)c1ccc(O)cc1 (racemic)
4. CC(O)(CN(C1CC1)S(=O)(=O)c1ccc(O)cc1)c1ccccc1 (racemic)
5. O=S(=O)(c1ccc(O)cc1)N(CCC(F)(F)F)c1ccc(O)cc1

["85%", "66%", "89%", "79%", "87%"]

###

What logD was measured for each of the following?
# protocol.details: Octanol-buffer partition coefficient, log D of the compound at pH 7.4
# Format: physicochemical

Below are worked cases with known answers.
1. CC(O)(CN(C1CC1)S(=O)(=O)c1ccc(O)cc1)c1ccccc1 (racemic)
2.5
2. CC(C)N(CC(C)(O)c1ccccc1)S(=O)(=O)c1ccc(O)cc1 (racemic)
2.9
3. CC(O)(CN(C1CC1)S(=O)(=O)c1ccc(O)cc1)c1c(F)cccc1F (racemic)
2.9
4. CCCCN(CC(C)(O)c1ccccc1)S(=O)(=O)c1ccc(O)cc1 (racemic)
3.4

Now look at this one.
For the molecule C[C@](O)(CN(C1CC1)S(=O)(=O)c1ccc(O)cc1)c1ccccc1 , report logD. 2.7

###

# system.name: Estrogen receptor beta (Homo sapiens)
# Sequence (Q92731 whole entry): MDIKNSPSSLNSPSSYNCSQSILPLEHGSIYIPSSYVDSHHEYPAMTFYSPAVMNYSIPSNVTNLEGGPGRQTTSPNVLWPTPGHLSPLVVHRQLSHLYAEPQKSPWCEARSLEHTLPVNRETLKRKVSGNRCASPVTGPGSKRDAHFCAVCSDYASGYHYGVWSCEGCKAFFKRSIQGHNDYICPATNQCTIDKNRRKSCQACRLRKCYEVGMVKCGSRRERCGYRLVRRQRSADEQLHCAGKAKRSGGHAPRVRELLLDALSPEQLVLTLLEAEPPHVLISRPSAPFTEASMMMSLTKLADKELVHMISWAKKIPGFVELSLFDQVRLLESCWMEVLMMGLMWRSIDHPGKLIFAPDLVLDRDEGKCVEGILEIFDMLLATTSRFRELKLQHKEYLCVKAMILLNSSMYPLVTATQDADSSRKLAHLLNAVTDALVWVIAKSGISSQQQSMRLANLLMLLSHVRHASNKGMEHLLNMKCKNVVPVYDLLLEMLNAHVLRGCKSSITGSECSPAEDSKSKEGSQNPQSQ
# protocol.details: Agonist activity at ERbeta expressed in […] cells co-expressing beta-lactamase after 18 hrs by beta-lactamase reporter gene assay
recorded.endpoint: pEC50
Answers are plain numbers, as −log10 of the molar value.

Below are worked cases with known answers.
1) CC(O)(CN(C1CC1)S(=O)(=O)c1ccc(O)cc1)c1cc[nH]n1 (racemic)
5.83
2) CCCCC(O)(CN(C1CC1)S(=O)(=O)c1ccc(O)cc1)c1ccccc1 (racemic)
7.19
3) O=S(=O)(c1ccc(O)cc1)N(CCC(F)(F)F)c1ccc(O)cc1
7.37

Now look at this one.
For the compound O=S(=O)(c1ccc(O)cc1)N(CC(O)(c1ccccc1)C(F)(F)F)C1CC1 (racemic) , report pEC50. 7.85

###

# system.name: Estrogen receptor beta (Homo sapiens)
# protocol.details: Agonist activity at ERbeta expressed in […] cells co-expressing beta-lactamase at 10 uM after 18 hrs by beta-lactamase reporter gene assay relative to estradiol
# Assay type: functional, cell-based
recorded.endpoint: Emax (%)
Answers are plain numbers, in %.

Below are worked cases with known answers.
1. CN(CC(C)(O)c1ccccc1)S(=O)(=O)c1ccc(O)cc1 (racemic)
49
2. CC(O)(CN(C1CC1)S(=O)(=O)c1ccc(O)cc1)c1ccccc1 (racemic)
47
3. O=S(=O)(c1ccc(O)cc1)N1[C@@H]2CC[C@H]1C[C@H](CO)C2
111
4. CC(O)(CN(C1CC1)S(=O)(=O)c1ccc(O)cc1)c1cc[nH]n1 (racemic)
86
5. Cc1ccc(O)c(CCNS(=O)(=O)c2ccc(O)cc2)c1
73

For each of the items listed, what is its Emax?
1. CC(O)(CN(C1CC1)S(=O)(=O)c1ccc(O)cc1)c1ccc(O)cc1 (racemic)
2. O=S(=O)(c1ccc(O)cc1)N(CCC(F)(F)F)c1ccc(O)cc1
3. CC(C)N(CC(C)(O)c1ccccc1)S(=O)(=O)c1ccc(O)cc1 (racemic)

1. 82
2. 104
3. 44

For each of the items listed, what is its Emax?
1. CC(O)(CN(C1CC1)S(=O)(=O)c1ccc(O)cc1)c1ccccc1F (racemic)
2. CC(O)(CN(C1CC1)S(=O)(=O)c1ccc(O)cc1)c1c(F)cccc1F (racemic)
3. C[C@](O)(CN(C1CC1)S(=O)(=O)c1ccc(O)cc1)c1ccccc1
4. CCCCC(O)(CN(C1CC1)S(=O)(=O)c1ccc(O)cc1)c1ccccc1 (racemic)
5. O=S(=O)(c1ccc(O)cc1)N(CC(O)(c1ccccc1)C(F)(F)F)C1CC1 (racemic)

1. 49
2. 45
3. 48
4. 36
5. 43

###

# system.name: Estrogen receptor beta (Homo sapiens)
# protocol.details: Agonist activity at ERbeta expressed in […] cells co-expressing beta-lactamase after 18 hrs by beta-lactamase reporter gene assay
recorded.endpoint: pEC50
Answers are plain numbers, as −log10 of the molar value.

Below are worked cases with known answers.
1) CC(O)(CN(C1CC1)S(=O)(=O)c1ccc(O)cc1)c1ccc(O)cc1 (racemic)
6.36
2) CCCCN(CC(C)(O)c1ccccc1)S(=O)(=O)c1ccc(O)cc1 (racemic)
7.08
3) C[C@@](O)(CN(C1CC1)S(=O)(=O)c1ccc(O)cc1)c1ccccc1
6.96
4) CN(CC(C)(O)c1ccccc1)S(=O)(=O)c1ccc(O)cc1 (racemic)
5.96
5) CC(C)N(CC(C)(O)c1ccccc1)S(=O)(=O)c1ccc(O)cc1 (racemic)
6.38
6) C[C@](O)(CN(C1CC1)S(=O)(=O)c1ccc(O)cc1)c1ccccc1
7.10
7) CC(O)(CN(C1CC1)S(=O)(=O)c1ccc(O)cc1)c1ccccc1F (racemic)
7.32
8) CC(O)(CN(C1CC1)S(=O)(=O)c1ccc(O)cc1)c1c(F)cccc1F (racemic)
7.29

Now look at this one.
For the compound CC(O)(CN(C1CC1)S(=O)(=O)c1ccc(O)cc1)c1ccccc1 (racemic) , report pEC50. 7.00

###

# system.name: Estrogen receptor (Homo sapiens)
# Sequence (P03372 whole entry): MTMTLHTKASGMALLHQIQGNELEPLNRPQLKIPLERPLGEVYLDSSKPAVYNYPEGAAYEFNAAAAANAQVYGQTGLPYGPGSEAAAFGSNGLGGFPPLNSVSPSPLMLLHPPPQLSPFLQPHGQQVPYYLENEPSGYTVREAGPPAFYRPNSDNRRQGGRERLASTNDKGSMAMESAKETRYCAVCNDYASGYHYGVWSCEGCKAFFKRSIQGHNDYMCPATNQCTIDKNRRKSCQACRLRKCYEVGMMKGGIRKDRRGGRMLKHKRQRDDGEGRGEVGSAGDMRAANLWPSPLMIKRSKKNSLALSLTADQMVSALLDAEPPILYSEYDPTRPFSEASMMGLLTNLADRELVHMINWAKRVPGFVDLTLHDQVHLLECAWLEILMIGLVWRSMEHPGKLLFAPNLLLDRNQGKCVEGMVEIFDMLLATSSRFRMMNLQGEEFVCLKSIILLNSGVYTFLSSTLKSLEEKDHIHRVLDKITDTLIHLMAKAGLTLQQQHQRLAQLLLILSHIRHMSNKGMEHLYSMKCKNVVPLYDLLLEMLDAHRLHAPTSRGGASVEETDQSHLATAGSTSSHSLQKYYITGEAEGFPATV
# protocol.details: Agonist activity at ERalpha expressed in HEK cells co-expressing beta-lactamase after 18 hrs by beta-lactamase reporter gene assay
What EC50 was measured for each of the following?

Below are worked cases with known answers.
1. CC(O)(CN(C1CC1)S(=O)(=O)c1ccc(O)cc1)c1ccccc1F (racemic)
> 10 µM
2. CCCCN(CC(C)(O)c1ccccc1)S(=O)(=O)c1ccc(O)cc1 (racemic)
> 1.1 µM
3. CCCCC(O)(CN(C1CC1)S(=O)(=O)c1ccc(O)cc1)c1ccccc1 (racemic)
> 6.51 µM
4. O=S(=O)(c1ccc(O)cc1)N1[C@@H]2CC[C@H]1C[C@H](CO)C2
3.5 µM

Now look at this one.
For the compound CC(O)(CN(C1CC1)S(=O)(=O)c1ccc(O)cc1)c1cc[nH]n1 (racemic) , report EC50. > 10 µM

###

# system.name: UniProt P03372
# protocol.details: Agonist activity at ERalpha expressed in HEK cells co-expressing beta-lactamase after 18 hrs by beta-lactamase reporter gene assay
recorded.endpoint: EC50

Below are worked cases with known answers.
1. C[C@](O)(CN(C1CC1)S(=O)(=O)c1ccc(O)cc1)c1ccccc1
> 5.4 µM
2. C[C@@](O)(CN(C1CC1)S(=O)(=O)c1ccc(O)cc1)c1ccccc1
> 4.56 µM
3. CC(C)N(CC(C)(O)c1ccccc1)S(=O)(=O)c1ccc(O)cc1 (racemic)
> 2.61 µM
4. CC(O)(CN(C1CC1)S(=O)(=O)c1ccc(O)cc1)c1ccccc1 (racemic)
2.31 µM

For each of the items listed, what is its EC50?
1. CC(O)(CN(C1CC1)S(=O)(=O)c1ccc(O)cc1)c1c(F)cccc1F (racemic)
2. CN(CC(C)(O)c1ccccc1)S(=O)(=O)c1ccc(O)cc1 (racemic)
3. O=S(=O)(c1ccc(O)cc1)N(CC(O)(c1ccccc1)C(F)(F)F)C1CC1 (racemic)

1: 3.8 µM; 2: > 3.2 µM; 3: > 2.68 µM

For each of the items listed, what is its EC50?
1. O=S(=O)(c1ccc(O)cc1)N(CCC(F)(F)F)c1ccc(O)cc1
2. CC(O)(CN(C1CC1)S(=O)(=O)c1ccc(O)cc1)c1ccc(O)cc1 (racemic)

["0.357 µM", "> 4.8 µM"]

Data origin, for the record: ChEMBL document CHEMBL1833844
